- target_of_assay: GK (glucokinase, residues 12-465) (Homo sapiens, UniProt P35557)
- Construct: I.D. No. 1 corresponds to residues 12-465 of glucokinase; made in house; host or cells: DH10b-T1r E. coli
- Sequence (P35557 with tags, fused parts or gaps isoform P35557-2): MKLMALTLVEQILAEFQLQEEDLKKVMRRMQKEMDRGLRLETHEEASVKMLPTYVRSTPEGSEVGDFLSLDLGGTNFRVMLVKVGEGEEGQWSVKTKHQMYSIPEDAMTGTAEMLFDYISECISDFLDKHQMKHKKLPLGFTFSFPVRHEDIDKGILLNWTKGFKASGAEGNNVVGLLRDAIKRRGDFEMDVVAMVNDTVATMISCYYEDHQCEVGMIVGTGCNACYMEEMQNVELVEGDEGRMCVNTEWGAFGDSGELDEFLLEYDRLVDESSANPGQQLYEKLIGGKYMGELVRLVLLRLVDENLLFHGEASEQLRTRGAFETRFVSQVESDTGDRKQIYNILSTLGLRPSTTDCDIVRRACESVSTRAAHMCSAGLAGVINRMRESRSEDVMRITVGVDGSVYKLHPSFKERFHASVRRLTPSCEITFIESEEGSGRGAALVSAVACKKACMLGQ
- experiment_notes: enzymatic glucokinase activity assay (ATP consumption, KinaseGlo luminescence)
- Assay type: biochemical
- experimental_setup: calculated maximal gain in GK enzyme activity at a saturating concentration of the compound; 5 μM ATP, 5 mM Glucose; reported as bins; read-out: % ACTmax
result_type: Emax

Some solved entries appear below for comparison.
| molecule | Emax |
| --- | --- |
| O=C(Nc1ncc(F)s1)C(CC1CCCC1)n1cc(S(=O)(=O)C2CC2)cn1 (stereo not shown) | ≥ 111% |
| Cc1nn(C(CC2CCOCC2)C(=O)Nc2ncc(F)s2)c(C)c1S(=O)(=O)C1CC1 (stereo not shown) | ≤ 90% |
| O=C(Nc1cnccn1)[C@@H](CC1CCOCC1)n1ncc2c(S(=O)(=O)C3CC3)ccnc21 | ≤ 90% |

# evaluate next
# input Give a short answer stating reported Emax for Cn1ccc(NC(=O)[C@H](CC2CCOCC2)n2ncc3c(S(=O)(=O)C4CC4)cncc32)n1 .
# output 101 to 105%

Hello, the source for this data is patent US8563730B2, in case you need it.
